target: FXR (Homo sapiens); construct: using a full length FXR on a natural response element; expressed in transfected cells; assay: cell-based transcription assay, FXR responsive promoter linked to a luciferase reporter; details: cell-based reporter assay

# compound, FXR activation (in words)
data = [
    ("COC(=O)/C=C/c1cccc(N(Cc2ccc(/C=C/c3c(Cl)cccc3Cl)cc2)C(=O)C2CCCCC2)c1 [Compound 177]", "excellent activity"),
    ("COC(=O)/C=C/c1cccc(N(Cc2ccc(-c3cccc(Cl)c3)cc2)C(=O)C2CCCCC2)c1 [Compound 232]", "excellent activity"),
    ("COC(=O)C=Cc1cccc(N(Cc2ccc(C=Cc3cccc(Cl)c3)cc2)C(=O)C2CCCCC2)c1 [Compound 180]", "excellent activity"),
]

---

biological target: FXR (Homo sapiens, UniProt Q96RI1); construct: using a full length FXR on a natural response element; expressed in transfected cells; experiment: cell-based transcription assay, FXR responsive promoter linked to a luciferase reporter; design: scale not given here; conditions: Tables 1-15; RE not defined in the source
reportedProperty: RE
The answer should be a number; do not append a unit.

Q. Suppose we examine the molecule COC(=O)/C=C/c1cccc(N(Cc2ccc(/C=C/c3c(Cl)cccc3Cl)cc2)C(=O)C2CCCCC2)c1 [Compound 177] ; what RE value has been reported?
A. 0.12

Q. Suppose we examine the molecule COC(=O)/C=C/c1cccc(N(Cc2ccc(/C=C/c3cccc(F)c3)cc2)C(=O)C(C)C)c1 [Compound 202] ; what RE value has been reported?
A. 1.33

Q. Suppose we examine the molecule COC(=O)/C=C/c1cccc(N(Cc2ccc(/C=C/c3ccc(F)cc3)cc2)C(=O)NC(C)C)c1 [Compound 206] ; what RE value has been reported?
A. 0.91

Q. Suppose we examine the molecule COC(=O)/C=C/c1cccc(N(Cc2ccc3c(c2OC)OC(C)(C)C2C3C2(Cl)Cl)C(=O)C2CCCCC2)c1 (stereo not drawn) [Compound 149] ; what RE value has been reported?
A. 0.50

Q. Suppose we examine the molecule COC(=O)/C=C/c1cccc(N(Cc2ccc(-c3cc(Cl)cc(Cl)c3)cc2)C(=O)NC(C)C)c1 [Compound 222] ; what RE value has been reported?
A. 0.10

Q. Suppose we examine the molecule COC(=O)C=Cc1cccc(N(Cc2ccc(C=CC(=O)OC(C)(C)C)cc2O)C(=O)C2CCCCC2)c1 [Compound 161] ; what RE value has been reported?
A. 0.12

---

Target: FXR (Homo sapiens)
Construct: using a full length FXR on a natural response element; expressed in transfected cells
Sequence (Q96RI1 1-486): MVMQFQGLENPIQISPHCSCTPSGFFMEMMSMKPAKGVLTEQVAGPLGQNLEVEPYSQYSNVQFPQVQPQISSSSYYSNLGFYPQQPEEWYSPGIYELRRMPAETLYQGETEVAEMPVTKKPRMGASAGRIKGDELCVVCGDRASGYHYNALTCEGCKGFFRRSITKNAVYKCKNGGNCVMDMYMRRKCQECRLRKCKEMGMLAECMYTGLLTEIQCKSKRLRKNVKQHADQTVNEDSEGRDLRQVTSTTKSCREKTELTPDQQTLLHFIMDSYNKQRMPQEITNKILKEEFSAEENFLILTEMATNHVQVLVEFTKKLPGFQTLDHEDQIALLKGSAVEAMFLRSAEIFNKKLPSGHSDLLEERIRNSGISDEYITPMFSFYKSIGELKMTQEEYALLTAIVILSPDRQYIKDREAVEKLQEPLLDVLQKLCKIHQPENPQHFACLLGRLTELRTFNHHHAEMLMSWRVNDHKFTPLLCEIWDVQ
Assay: cell-based transcription assay, FXR responsive promoter linked to a luciferase reporter
Settings: Tables 1-15; FXR activation, cell-based reporter assay; read-out: EC50
reportedProperty: log10 EC50 (log10 of the value in nM)
Lab note - EC50 converted to log10 from values in nM.

Q. Suppose we examine the compound COC(=O)/C=C/c1cccc(N(Cc2ccc(-c3ccc(OC(F)(F)F)cc3)cc2)C(=O)C(C)C)c1 ; what log10 EC50 value has been reported?
A. 2.34

Q. Suppose we examine the compound COC(=O)/C=C/c1cccc(N(Cc2ccc(-c3ccc(SC)cc3)cc2)C(=O)C2CCCCC2)c1 ; what log10 EC50 value has been reported?
A. 1.95

Q. Suppose we examine the compound COC(=O)/C=C/c1cccc(N(Cc2ccc(-c3ccccc3OC)cc2)C(=O)C(C)C)c1 ; what log10 EC50 value has been reported?
A. 2.58

Q. Suppose we examine the compound COC(=O)/C=C/c1cccc(N(Cc2ccc(-c3cc(Cl)cc(Cl)c3)cc2)C(=O)C(C)C)c1 ; what log10 EC50 value has been reported?
A. 2.75

Q. Suppose we examine the compound COC(=O)/C=C/c1cccc(N(Cc2ccc(-c3ccc(F)c(F)c3)cc2)C(=O)NC(C)C)c1 ; what log10 EC50 value has been reported?
A. 3.91

Q. Suppose we examine the compound COC(=O)C=Cc1cccc(N(Cc2ccc(CCC(=O)OC(C)(C)C)cc2)C(=O)C2CCCCC2)c1 ; what log10 EC50 value has been reported?
A. 2.38

Q. Suppose we examine the compound COC(=O)/C=C/c1cccc(N(Cc2ccc(/C=C/c3c(Cl)cccc3Cl)cc2)C(=O)C2CCCCC2)c1 ; what log10 EC50 value has been reported?
A. 2.18

Q. Suppose we examine the compound COC(=O)/C=C/c1cccc(N(Cc2ccc(-c3ccc(OC)cc3)cc2)C(=O)NC(C)C)c1 ; what log10 EC50 value has been reported?
A. 2.16

Q. Suppose we examine the compound COC(=O)/C=C/c1cccc(N(Cc2ccc(/C=C/c3ccccc3F)cc2)C(=O)C(C)C)c1 ; what log10 EC50 value has been reported?
A. 1.85
